This collection of values is drawn from ChEMBL document CHEMBL1136143.

system: Enterococcus faecalis; assay: In vitro minimum inhibitory concentration against vancomycin-susceptible Enterococcus faecalis (GC 4555); type: functional
Could you mark each record Criterion met if its MIC falls strictly under 20 µg/mL, and Criterion not met if it equals or exceeds it?

IN: Confirm or reject: MIC of C[C@@H](c1ccccc1)[C@@H]1NC(=O)CNC(=O)[C@H](CO)NC(=O)[C@@H]([C@@H](O)[C@@H]2CN=C(N)N2[C@H]2O[C@H](CO)[C@@H](O)[C@H](O)[C@@H]2O)NC(=O)[C@H]([C@H](O)[C@@H]2CN=C(N)N2)NC(=O)[C@@H](Cc2ccc3nc(-c4cccc(F)c4)oc3c2)NC1=O lies strictly below 20 µg/mL
OUT: Criterion not met

IN: Confirm or reject: MIC of C[C@@H](c1ccccc1)[C@@H]1NC(=O)CNC(=O)[C@H](CO)NC(=O)[C@@H]([C@@H](O)[C@@H]2CN=C(N)N2[C@H]2O[C@H](CO)[C@@H](O)[C@H](O)[C@@H]2O)NC(=O)[C@H]([C@H](O)[C@@H]2CN=C(N)N2)NC(=O)[C@@H](Cc2ccc3nc(-c4ccc(N(C)C)cc4)oc3c2)NC1=O lies strictly below 20 µg/mL
OUT: Criterion not met

IN: Confirm or reject: MIC of Cc1ccc(Oc2ccc(-c3nc4ccc(C[C@H]5NC(=O)[C@H]([C@@H](C)c6ccccc6)NC(=O)CNC(=O)[C@H](CO)NC(=O)[C@@H]([C@@H](O)[C@@H]6CN=C(N)N6[C@H]6O[C@H](CO)[C@@H](O)[C@H](O)[C@@H]6O)NC(=O)[C@H]([C@H](O)[C@@H]6CN=C(N)N6)NC5=O)cc4o3)cc2)cc1 lies strictly below 20 µg/mL
OUT: Criterion met

IN: Confirm or reject: MIC of CCN1CCN(C(=O)N[C@@H](C(=O)N[C@@H]2C(=O)N3[C@@H]2SC(C)(C)[C@@H]3C(=O)O)c2ccccc2)C(=O)C1=O lies strictly below 20 µg/mL
OUT: Criterion met

IN: Confirm or reject: MIC of C[C@@H](c1ccccc1)[C@@H]1NC(=O)CNC(=O)[C@H](CO)NC(=O)[C@@H]([C@@H](O)[C@@H]2CN=C(N)N2[C@H]2O[C@H](CO)[C@@H](O)[C@H](O)[C@@H]2O)NC(=O)[C@H]([C@H](O)[C@@H]2CN=C(N)N2)NC(=O)[C@@H](Cc2ccc3nc(SCC(=O)c4ccc(Cl)cc4)oc3c2)NC1=O lies strictly below 20 µg/mL
OUT: Criterion met
